# Test name: amyloid nucleation score (Sup35N fusion, yeast selection) (log enrichment); library NNK1; higher = more nucleation; inactive = no reads after selection;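 note: zero at mode of non-aggregating sequences after 7 days selection at 30°C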
# label = criterion met if amyloid nucleation score >= 0.3 else criterion not met

# Substance, Assigned category
records = [
    ("FSWADLDRYCISLQNQGPLA", "criterion met"),
    ("LGSWRFMLAVI", "criterion met"),
    ("VNWFTR", "criterion met"),
    ("FCHYTVLYDSPTLLVRVTWA", "criterion not met"),
    ("FSCKSAPQFCRWG", "criterion met"),
    ("AQYELLMQRNWYVGKDLVRG", "criterion not met"),
    ("FDRMNCALGVPLWDALKDGS", "criterion met"),
    ("GFGPTIYSFRSSGQGNGLMP", "criterion not met"),
    ("KEDIVLACIGSVKHVRAQWR", "criterion met"),
    ("YLFRLVTVFNVVKATLVVTV", "criterion not met"),
    ("GLNALSFNQV", "criterion not met"),
    ("TKIRCDRWTLYIKGITYRAL", "criterion met"),
    ("AYFMVHLLIF", "criterion met"),
    ("RVNTETMITGESGMSIDELM", "criterion met"),
    ("SWVWCYWILSWIREFLLRQG", "criterion met"),
    ("RSQNLGGVFGET", "criterion not met"),
    ("FIYFYGRYNSSGDPFQVFLG", "criterion not met"),
    ("FFGCFGLYYAMAHLLYPSLE", "criterion met"),
    ("LDAKVFRVALAYYLPPGP", "criterion met"),
    ("FHWVGVSYQLKMRRVKPKGV", "criterion not met"),
    ("PCMFYWTVLGRLRTKPPSGV", "criterion not met"),
    ("RYGGRCNTR", "criterion not met"),
    ("FNLRTIARDL", "criterion not met"),
    ("KLMSEFTKFVFSLLSSNKSH", "criterion not met"),
    ("VRNETSCTAIVFRSE", "criterion not met"),
    ("ITNCEAEEPDCWPDE", "criterion not met"),
    ("QESVGSNRRVVGDNASLRLL", "criterion not met"),
    ("EGRLTVE", "criterion not met"),
    ("ELGSGFQFVYSYS", "criterion not met"),
    ("LRTARNMGYICSIVSFNNLN", "criterion met"),
    ("LPSVESLHRTTSCVYF", "criterion not met"),
    ("SRRVQLYVLGFRGIKSGTFL", "criterion not met"),
    ("KGAVFVPETAPLI", "criterion met"),
    ("GLMVHRDFGIECLQHETHFG", "criterion not met"),
    ("FGTLGK", "criterion met"),
    ("SDELVQSTASGLFYASMGFK", "criterion met"),
    ("WISKWHYGAQSSARSKYARI", "criterion met"),
    ("RRLLISPMTYVSDLASIQGC", "criterion not met"),
    ("VIKMFRRSDDIVVSKPLRE", "criterion not met"),
    ("DGCDGCLTYAKCGYLGFY", "criterion met"),
    ("WEDSGVIFLMVCCSVYLGNL", "criterion met"),
    ("CLLLARVVALVGPPSRTSGV", "criterion not met"),
    ("KDEARRGLTLCPTGKDILDY", "criterion not met"),
    ("FMRSATCKVWNL", "criterion not met"),
    ("NHCFLVRWNISKSSRDVSWC", "criterion not met"),
    ("VAVQRPIFIVMWPQNLCISA", "criterion met"),
    ("VAISQCLNNSNSRNIIVVKW", "criterion met"),
    ("YAVRYFETVVLQGIEVIPES", "criterion not met"),
    ("AVSSYYVERRYLNLQGANRY", "criterion met"),
    ("CAFEAGLWTSDFLNEPVYHY", "criterion not met"),
    ("ISVKHKFPGANSSVRWDRFW", "criterion met"),
    ("HITMRLFTPYLTYNMPMSLK", "criterion not met"),
    ("LYTLRLGI", "criterion not met"),
    ("FFRRNHGYNI", "criterion not met"),
    ("CGRTYRGLS", "criterion met"),
    ("QEINGKAQWSPIHSISTMAA", "criterion met"),
    ("MPGSTLLSAKMTSLGGTALW", "criterion met"),
    ("SKICLMSIYHLQLDPFIGMP", "criterion met"),
    ("CFWRNFDRGEAS", "criterion met"),
    ("NTFYCCFLFFY", "criterion met"),
    ("YFAPFRGTSWFTRSCN", "criterion not met"),
    ("RKASWRWMSSMSNVGWTCPN", "criterion met"),
    ("DRYCGYWNGTSSCMICGRVV", "criterion met"),
    ("PREDRGLSWISGYYYYLVAG", "criterion not met"),
    ("TFYMTSSLST", "criterion not met"),
    ("LGLGDGLLVRFNKFCGLMGR", "criterion not met"),
    ("LIKGWSYPGVPCVGLLMDGK", "criterion not met"),
    ("LGYKSGVFLWGFRFHP", "criterion not met"),
]

====

# Test name: amyloid nucleation score (Sup35N fusion, yeast selection) (log enrichment); library NNK3; higher = more nucleation; inactive = no reads after selection

# Substance, amyloid nucleation score
records = [
    ("LRFVHDVLDFGASMSLRRK", 0.606),
    ("VGKYAGCCLKRPSLDAMGHV", "inactive"),
    ("VFWYKYVFSCNIIQGLLRMK", "inactive"),
    ("TFLKGSLFCCYYTRDAVDYI", 2.64),
    ("FLMRCISLGGTGANFLLELS", "inactive"),
    ("VNEPDSVFMT", "inactive"),
    ("CFGHYSMN", "inactive"),
    ("CQSPDALVRWGR", -0.087),
    ("LWDDMVIMFGPVICYGMASG", "inactive"),
    ("FNHPNQGVCIHCISGKGWTR", "inactive"),
    ("YDVSRDATDCRVYCCPFSRS", 1.23),
    ("YSWSMLL", 0.077),
    ("RIQCLCVDVLSVMLSVHA", 1.48),
    ("VKRGLVCETSLCRYFFLFGQ", 1.35),
    ("YLSVPVF", "inactive"),
    ("LCESSLKDNGVTSLFVWVLK", "inactive"),
    ("RPYHSEKYDKFVDAMSFWCW", "inactive"),
    ("DLYQPDS", "inactive"),
    ("RKVGRLIPFHFCSN", "inactive"),
    ("GSVSYISLSDNWVSGRKK", "inactive"),
    ("HSITNITCSFDLAFLRMHVL", 0.871),
    ("FELTVLSSMVAIFL", 1.61),
    ("GWAGGSLNARMSRWF", 0.881),
    ("AWKLKFFVFNSLSVIT", "inactive"),
    ("AVWYRNI", 2.06),
    ("NVYVSSRVYISK", 2.88),
    ("SHNVSTWRMICSWLVRPFIR", "inactive"),
    ("FTHAIPVYDEVPNHDICDGS", "inactive"),
    ("YMQQSR", "inactive"),
    ("FRHFRSLLSVFLVYRFQLSV", "inactive"),
    ("PRTSKFVAVAFKV", "inactive"),
    ("IEFFEYVCVMFFCC", "inactive"),
    ("RQGCKVCRWLRSKSLLLRRM", "inactive"),
    ("SVFFYKYQALIRNEGEK", "inactive"),
    ("VQWSEMTAFTGFFSVYISSG", "inactive"),
    ("SGCYNYFCGFLLKYSMYVSL", "inactive"),
    ("IIVVCDSDRLFLPNQPPNVI", "inactive"),
    ("WKSPVYAYVWNSGPFRRQGK", "inactive"),
    ("HLVCYLWE", 1.71),
    ("RSLHWNLGLCIWYNEFRDLM", 1.8),
    ("SRVHEVLNFCTY", "inactive"),
    ("VRPELMALTDI", "inactive"),
    ("WPSGFCYR", "inactive"),
    ("GFAMVLSWLKSGFPISRDLR", "inactive"),
    ("NTFCGVEISSYIGAARKCLK", "inactive"),
    ("NYNYNRSAHSGCPPGLEGVM", "inactive"),
    ("FHLYNVW", "inactive"),
    ("FNGRLVLHHRTVI", "inactive"),
    ("NRSRNMESVRDSLLSVVNRE", "inactive"),
    ("LREPRGGSWRRLDCFKCRLG", "inactive"),
    ("ELLVVFEESIVINFLDANIW", 0.674),
    ("CHAIASVVSEYNGPLVVTVI", "inactive"),
    ("KLLFLSYTYWWKSHFWRFRT", "inactive"),
    ("LLKVSGYWLMLRGLTRKFMG", -0.047),
    ("CDMDVFLSNMPSSVVNRSG", "inactive"),
    ("HYKLSSMVSVYLLTIL", -0.307),
    ("VVLAMTHSYRNFKMFRDHYH", 0.957),
    ("YFGDPVLNASLVIVLHLYWL", 1.21),
    ("TYEEGRRQCSRAPMDSYVQS", "inactive"),
    ("SHLSYYTFKWSSEATRAVPM", 1.82),
    ("VYTMVTMIDGIELFRWNLWS", "inactive"),
    ("GAFSWCSRVVDMVRLTRCDH", "inactive"),
    ("VFAISV", "inactive"),
    ("ATGLWGICGWTPDTNHLQVM", "inactive"),
    ("KYLWDLATHNIFAGSKMMDN", "inactive"),
    ("VNTSINVYRYPFRCRSYRMH", 0.833),
    ("KCTFFDTCVTQTCLFNMFGC", 2.34),
    ("NRFINASNS", "inactive"),
    ("CVVPHPLSLPSD", "inactive"),
    ("CNSVRLGFQWAKYVLWRHRG", "inactive"),
    ("CSMFVAIIPRWSFEWPLRW", "inactive"),
    ("GFKFKYSYRIDLWEGHWVVR", "inactive"),
    ("FGADSDQHLRRLLGAEGWCR", "inactive"),
]
